From: patent US20130059850A1

- Assay target: human FAAH (Fatty Acid Amide Hydrolase) (Homo sapiens)
- Construct: The full length FAAH was subcloned into the mammalian expression vector, pcDEF.neo, using XbaI and EcoRI restriction sites; expressed in transfected cells
- Sequence (O00519 whole entry): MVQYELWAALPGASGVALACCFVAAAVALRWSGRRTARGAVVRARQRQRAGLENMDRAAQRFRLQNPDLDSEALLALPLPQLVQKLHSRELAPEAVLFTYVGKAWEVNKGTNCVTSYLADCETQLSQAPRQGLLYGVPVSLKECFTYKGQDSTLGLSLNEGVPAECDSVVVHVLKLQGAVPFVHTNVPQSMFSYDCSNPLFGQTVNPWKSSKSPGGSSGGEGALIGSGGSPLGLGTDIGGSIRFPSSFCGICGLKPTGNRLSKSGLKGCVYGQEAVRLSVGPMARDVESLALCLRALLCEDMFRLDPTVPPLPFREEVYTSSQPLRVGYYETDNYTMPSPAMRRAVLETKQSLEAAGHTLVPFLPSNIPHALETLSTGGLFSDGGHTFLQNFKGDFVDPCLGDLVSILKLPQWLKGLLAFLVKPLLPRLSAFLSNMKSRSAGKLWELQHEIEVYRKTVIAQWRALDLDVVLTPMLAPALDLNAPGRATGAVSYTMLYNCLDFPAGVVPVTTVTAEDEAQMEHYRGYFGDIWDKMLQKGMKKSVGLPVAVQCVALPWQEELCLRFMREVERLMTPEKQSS
- Measurement notes: FAAH whole cell assay on CHO cells expressing human FAAH (human WC), AAMCA fluorescent substrate
- Format: cell-based
- Reported conditions: human FAAH_CHO whole cell
Recorded endpoint: IC50 (nM)

Please review the entries below; each comes with its answer.
| Compound | IC50 [nM] |
| --- | --- |
| Clc1ccc(Sc2c(-c3ccc(C4CC4)nc3)[nH]c3ncccc23)cc1 [Example B37] | 21.7 |
| Cn1cccc2c(Sc3ccc(Cl)cn3)c(-c3ccc4c(c3)OCO4)nc1-2 [Example E11] | 71.6 |
| CCOC(=O)CCc1[nH]c2ncccc2c1Sc1ccc(Cl)cc1 [Example F3] | 64.9 |
| Cn1cccc2c(Sc3ccc(Cl)cc3)c(-c3ccc4c(c3)CNC4=O)nc1-2 [Example E28] | 24 |
| OCCn1cccc2c(Sc3ccc(Cl)cn3)c(-c3ccc4c(c3)OCO4)nc1-2 [Example E20] | 1040 |

a: Clc1ccc(Sc2c(CNCc3ccccc3)[nH]c3ncccc23)cc1 [Example J6]
b: OC(c1ccc2c(c1)OCO2)c1[nH]c2ncccc2c1Sc1ccc(Cl)cc1 (stereo not drawn) [Example J9]
Could you kindly indicate whether a or b has the higher IC50 value? Write down the label attached to your selection. b

1: C[S+]([O-])c1ccc(-c2[nH]c3ncccc3c2Sc2ccc(Cl)cc2)cn1 (stereo not drawn) [Example A36]
2: O=C(NC1CCCCC1)c1[nH]c2ncccc2c1Sc1ccc(Cl)cc1 [Example C17]
Form field 'greater IC50' accepts 1 or 2 ; which applies? Give the label under which the chosen entry appears. 2
